Measured pIC50 values are reported for all entries that follow.
Molecular target: human Npt2a (Homo sapiens, UniProt Q06495)
Sequence (Q06495 whole entry): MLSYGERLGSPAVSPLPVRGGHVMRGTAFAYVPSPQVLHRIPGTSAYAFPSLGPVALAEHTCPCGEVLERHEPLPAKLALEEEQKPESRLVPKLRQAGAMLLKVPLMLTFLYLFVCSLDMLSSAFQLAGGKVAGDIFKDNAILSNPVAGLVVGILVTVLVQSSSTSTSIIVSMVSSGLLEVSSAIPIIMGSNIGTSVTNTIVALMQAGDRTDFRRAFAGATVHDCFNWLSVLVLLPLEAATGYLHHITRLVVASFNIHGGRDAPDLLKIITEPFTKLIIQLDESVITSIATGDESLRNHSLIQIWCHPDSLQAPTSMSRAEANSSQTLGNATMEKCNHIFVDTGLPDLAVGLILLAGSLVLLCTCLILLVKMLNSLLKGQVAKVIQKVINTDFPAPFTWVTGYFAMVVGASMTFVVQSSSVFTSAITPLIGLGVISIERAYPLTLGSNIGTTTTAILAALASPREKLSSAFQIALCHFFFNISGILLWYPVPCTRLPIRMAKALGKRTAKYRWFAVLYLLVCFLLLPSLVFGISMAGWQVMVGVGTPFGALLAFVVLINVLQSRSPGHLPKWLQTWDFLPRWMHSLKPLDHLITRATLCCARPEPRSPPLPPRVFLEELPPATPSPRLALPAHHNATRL
Assay: Npt2a activity cell based assay, membrane potential dye, CHO T-REx hNpt2a cells
Conditions: doxycycline-induced, depolarization by sodium phosphate influx, average or median values if tested more than once
pIC50: −log10 of the molar value.
REPORTED ENDPOINT: pIC50

>  <MOLECULE>
CCc1c(Nc2cc(-n3nc(C)c4c3CCC4(C)O)ncn2)nn(C)c1-c1ccc(F)cc1 (racemic)

>  <REPORTED ENDPOINT>
pIC50

>  <MEASURED VALUE>
6.90

$$$$
>  <MOLECULE>
Cc1nn(-c2cc(Nc3c(C)c(-c4ccc(C(F)F)cc4)nn3CC3CC3)ncn2)c(C)c1C(O)C1CC1 (racemic) [Example 460]

>  <REPORTED ENDPOINT>
pIC50

>  <MEASURED VALUE>
7.01

$$$$
>  <MOLECULE>
Cc1nn(-c2cc(Nc3c(C)c(-c4ccc(C#N)cc4)nn3CCC3CC3)ncn2)c(C(F)F)c1Cl

>  <REPORTED ENDPOINT>
pIC50

>  <MEASURED VALUE>
7.82

$$$$
>  <MOLECULE>
CNc1ccc(-c2nn(CC3CC3)c(Nc3cc(-n4nc(C)cc4C)ncn3)c2C)cc1

>  <REPORTED ENDPOINT>
pIC50

>  <MEASURED VALUE>
6.43

$$$$
>  <MOLECULE>
Cc1cc(C)n(-c2cc(Nc3nn(C)c(-c4ccc(F)cc4)c3Cl)ncn2)n1

>  <REPORTED ENDPOINT>
pIC50

>  <MEASURED VALUE>
8.24

$$$$
>  <MOLECULE>
Cc1nn(-c2cc(Nc3nn(CC4CC4)c(-c4ccc(F)cc4)c3Cl)ncn2)c(C)c1Cl

>  <REPORTED ENDPOINT>
pIC50

>  <MEASURED VALUE>
6.03

$$$$
>  <MOLECULE>
Cc1ccn(-c2cc(Nc3c(C)c(-c4ccc(C#N)cc4)nn3CC3CC3)ncn2)n1

>  <REPORTED ENDPOINT>
pIC50

>  <MEASURED VALUE>
7.55

$$$$
>  <MOLECULE>
CCc1c(-c2ccc(F)cc2)nn(CC2CC2)c1Nc1cc(-n2nc(C)c(C#N)c2C)ncn1

>  <REPORTED ENDPOINT>
pIC50

>  <MEASURED VALUE>
7.31

$$$$
>  <MOLECULE>
Cc1cc(C)n(-c2cc(Nc3c(C)c(-c4ccc(Cl)cc4)nn3C)ncn2)n1

>  <REPORTED ENDPOINT>
pIC50

>  <MEASURED VALUE>
6.87

$$$$
>  <MOLECULE>
COCCn1nc(-c2ccc(F)cn2)c(C)c1Nc1cc(-n2nc(C)c(OC)c2C)ncn1

>  <REPORTED ENDPOINT>
pIC50

>  <MEASURED VALUE>
7.96

$$$$
>  <MOLECULE>
Cc1nn(-c2cc(Nc3c(C)c(-c4ccc(C(F)F)cc4)nn3CC3CC3)ncn2)c(C)c1C(O)C1CC1 (single isomer, unassigned) [Example 495]

>  <REPORTED ENDPOINT>
pIC50

>  <MEASURED VALUE>
7.96

$$$$
>  <MOLECULE>
COc1c(Nc2cc(-n3nc(C)c(C(F)(F)F)c3C)ncn2)nn(C)c1-c1ccc(C#N)cc1

>  <REPORTED ENDPOINT>
pIC50

>  <MEASURED VALUE>
6.59

$$$$
>  <MOLECULE>
Cc1cc(C(F)F)n(-c2cc(Nc3nn(C)c(-c4ccc(F)cc4)c3C)ncn2)n1

>  <REPORTED ENDPOINT>
pIC50

>  <MEASURED VALUE>
8.08

$$$$
>  <MOLECULE>
CNc1ccc(-c2nn(CC3CC3)c(Nc3cc(-n4nc(C)cc4C(F)F)ncn3)c2C)cc1

>  <REPORTED ENDPOINT>
pIC50

>  <MEASURED VALUE>
6.82

$$$$
>  <MOLECULE>
CCc1c(Nc2cc(-n3nc(C)c(Cl)c3C(F)F)ncn2)nn(C)c1-c1ccc(F)cc1

>  <REPORTED ENDPOINT>
pIC50

>  <MEASURED VALUE>
7.92

$$$$
